// values below are reported pIC50
Biological target: UniProt Q8IXJ6
Sequence (Q8IXJ6 whole entry): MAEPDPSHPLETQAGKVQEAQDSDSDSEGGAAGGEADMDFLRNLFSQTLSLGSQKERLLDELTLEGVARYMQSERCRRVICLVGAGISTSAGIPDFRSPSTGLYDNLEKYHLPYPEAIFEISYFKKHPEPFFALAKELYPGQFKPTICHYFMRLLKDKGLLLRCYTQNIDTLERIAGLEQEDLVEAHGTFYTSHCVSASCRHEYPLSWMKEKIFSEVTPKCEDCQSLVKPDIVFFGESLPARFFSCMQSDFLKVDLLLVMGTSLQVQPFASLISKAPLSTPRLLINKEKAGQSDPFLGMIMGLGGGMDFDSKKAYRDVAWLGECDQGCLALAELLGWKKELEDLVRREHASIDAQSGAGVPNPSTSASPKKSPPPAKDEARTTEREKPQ
Test: Inhibition of human recombinant SIRT2 by fluorescent deacetylase assay
pIC50: −log10 of the molar value.

{"MOLECULE": "CN1C(=O)C(c2c[nH]c3ccccc23)=C(c2c[nH]c3ccccc23)C1=O", "ASSAY_TARGET": "UniProt Q8IXJ6", "pIC50": 4.48}
{"MOLECULE": "CN(C)CCCn1cc(C2=C(c3c[nH]c4ccccc34)C(=O)NC2=O)c2ccccc21 [GF-109203]", "ASSAY_TARGET": "UniProt Q8IXJ6", "pIC50": 5.14}

* * *

// values below are reported inhibition
Target: NAD-dependent protein deacetylase sirtuin-1 (Homo sapiens)
Experiment: Inhibition of human SIRT1 at 50 uM
READOUT_TYPE: inhibition (%)

{"MOLECULE": "CN1CCCC1CCn1cc(C2=C(c3c[nH]c4ccccc34)C(=O)NC2=O)c2ccccc21 (stereo not drawn)", "UNIT_DESCRIPTOR": "%", "OBS_VALUE": 58.2}
{"MOLECULE": "O=C1NC(=O)C2=C1c1cn(c3ccccc13)CC[C@@H](C1COC3(CCCCC3)O1)OCCn1cc2c2c(F)cccc21 (stereo partly drawn)", "UNIT_DESCRIPTOR": "%", "OBS_VALUE": 55.7}
{"MOLECULE": "O=C1NC(=O)C(c2c[nH]c3ccccc23)=C1c1c[nH]c2ccccc12", "UNIT_DESCRIPTOR": "%", "OBS_VALUE": 52.7}
{"MOLECULE": "O=C1NC(=O)C(c2c[nH]c3cccc(F)c23)=C1c1cn(CCOC(CCO)C2COC3(CCCCC3)O2)c2ccccc12 (stereo not drawn)", "UNIT_DESCRIPTOR": "%", "OBS_VALUE": 71.9}
{"MOLECULE": "O=C1NC(=O)C(c2c[nH]c3cccc(F)c23)=C1c1cn(CCOC(CCO)C(O)CO)c2ccccc12 (stereo not drawn)", "UNIT_DESCRIPTOR": "%", "OBS_VALUE": 29.9}
{"MOLECULE": "O=C1NC(=O)C(c2cn(CCOC(CCO)C3COC4(CCCCC4)O3)c3ccccc23)=C1c1c[nH]c2ccccc12 (stereo not drawn)", "UNIT_DESCRIPTOR": "%", "OBS_VALUE": 77.5}
{"MOLECULE": "O=C1Cc2c([nH]c3ccccc23)-c2ccccc2N1", "UNIT_DESCRIPTOR": "%", "OBS_VALUE": 49.4}
{"MOLECULE": "NC(=O)c1cccnc1", "UNIT_DESCRIPTOR": "%", "OBS_VALUE": 10.6}
